# System: rat hind paw oedema
# RUN_DESCRIPTION: Anti-inflammatory activity, carrageenan-induced rat hind paw oedema
# Format: in vivo, Sprague Dawley rat
# RECORDED_CONDITIONS: 4th hour; test compounds 100 mg/kg; n = 5
PARAMETER: Mean paw edema (volume in ml) ± SEM (mL)
Reply numerically in mL, unit not repeated.

Worked set:
# SMILES_DATA, PARAMETER, REPORTED
rows = [
    ("COc1ccc(Cn2c(-c3ccc(OC)cc3)nc3ccccc32)cc1", "Mean paw edema (volume in ml) ± SEM", 0.88),
    ("c1ccc(COCc2nc3ccccc3[nH]2)cc1", "Mean paw edema (volume in ml) ± SEM", 0.96),
    ("Clc1ccc(-c2nc3ccccc3[nH]2)cc1", "Mean paw edema (volume in ml) ± SEM", 0.89),
    ("Clc1ccc(Cn2c(-c3ccc(Cl)cc3)nc3ccccc32)cc1", "Mean paw edema (volume in ml) ± SEM", 0.78),
]

Shifting focus to the compound that follows.
Exercise: Find Mean paw edema (volume in ml) ± SEM (rat hind paw oedema) for the entry Oc1ccc(Cn2c(-c3ccc(O)cc3)nc3ccccc32)cc1
Key: 0.88

---

Record set of IC50 for target or system butyrylcholinesterase (Rattus norvegicus, UniProt Q9JKC1).
Reply numerically in µM, unit not repeated.

# MOLECULE, UNIT_INFO, IC50
measured = [
    ("Clc1ccc(Cn2c(-c3ccc(Cl)cc3)nc3ccccc32)cc1 [Compound 3b]", "µM", 66.3),
]

Shifting focus to the molecule that follows.
Exercise: Find IC50 (butyrylcholinesterase (Rattus norvegicus, UniProt Q9JKC1)) for the entry Oc1ccc(Cn2c(-c3ccc(O)cc3)nc3ccccc32)cc1 [Compound 3a]
Key: 49.1

---

# Tested on: rat hind paw oedema
# RUN_DESCRIPTION: Anti-inflammatory activity, carrageenan-induced rat hind paw oedema
# Type: in vivo, Sprague Dawley rat
# RECORDED_CONDITIONS: 2nd hour; test compounds 100 mg/kg; n = 5
Mark Y for Mean paw edema (volume in ml) ± SEM under 0.8 mL, N if at or over.

For orientation, consider the following solved cases.
# SMILES_DATA, TARGET_ENTITY, CAT
rows = [
    ("Clc1ccc(Cn2c(-c3ccc(Cl)cc3)nc3ccccc32)cc1", "rat hind paw oedema", "Y"),
    ("Clc1ccc(-c2nc3ccccc3[nH]2)cc1", "rat hind paw oedema", "N"),
]

Could you now look at the following molecule, please?
Exercise: Find out if reported Mean paw edema (volume in ml) ± SEM for c1ccc(COCc2nc3ccccc3[nH]2)cc1 is less than 0.8 mL
Key: N

---

# Test system: rat hind paw oedema
# RUN_DESCRIPTION: Anti-inflammatory activity, carrageenan-induced rat hind paw oedema
# Assay type: in vivo, Sprague Dawley rat
# RECORDED_CONDITIONS: 1st hour; test compounds 100 mg/kg
Please enter True where % Paw edema inhibition is greater than or equal to 30%, and False where it is lower.

For orientation, consider the following solved cases.
# COMPOUND, CAT
data = [
    ("c1ccc(COCc2nc3ccccc3[nH]2)cc1 [Compound 6, 2-((benzyloxy)-methyl)-1H-benzimidazole]", "False"),
    ("Clc1ccc(Cn2c(-c3ccc(Cl)cc3)nc3ccccc32)cc1 [Compound 3b]", "True"),
    ("Oc1ccc(Cn2c(-c3ccc(O)cc3)nc3ccccc32)cc1 [Compound 3a]", "True"),
    ("Clc1ccc(-c2nc3ccccc3[nH]2)cc1 [Compound 4, 2-(4-chlorophenyl)-1H-benzimidazole]", "False"),
    ("COc1ccc(Cn2c(-c3ccc(OC)cc3)nc3ccccc32)cc1 [Compound 3c]", "True"),
]

Could you now look at the following compound, please?
Exercise: Does the reported % Paw edema inhibition for O=C(O)Cc1ccccc1Nc1c(Cl)cccc1Cl [Diclofenac sodium, diclofenac sodium, reference compound] fall at or above the 30% mark?
Key: False
